Overview of reported pEC50 across a group of molecules:
Target: T1, human glucagon receptor (GCGr) (Homo sapiens, UniProt P47871)
T1 construct: expressed in transfected cells; host or cells: HEK293s or CHO cells
T1 sequence (P47871 26-477): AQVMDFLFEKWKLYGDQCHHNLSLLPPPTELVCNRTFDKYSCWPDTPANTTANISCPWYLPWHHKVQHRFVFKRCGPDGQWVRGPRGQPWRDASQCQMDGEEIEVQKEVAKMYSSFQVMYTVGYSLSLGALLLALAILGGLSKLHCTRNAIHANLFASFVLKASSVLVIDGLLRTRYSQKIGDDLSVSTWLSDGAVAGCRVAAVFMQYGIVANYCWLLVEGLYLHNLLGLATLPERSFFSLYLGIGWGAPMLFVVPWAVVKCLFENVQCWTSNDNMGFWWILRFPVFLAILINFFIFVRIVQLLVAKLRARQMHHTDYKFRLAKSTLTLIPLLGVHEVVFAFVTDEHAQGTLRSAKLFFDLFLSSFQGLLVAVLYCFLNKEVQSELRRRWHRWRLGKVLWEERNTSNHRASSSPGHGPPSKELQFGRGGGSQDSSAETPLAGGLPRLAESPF
Assay: BSA-cAMP assay, cells expressing human glucagon receptor
Format: cell-based
Conditions: batch 1 unless a batch is given, read-out: cAMP activity hGCGr (EC50)
pEC50: −log10 of the molar value.
Observed Property: pEC50

molecule="IP207 (protein, /note=“Description of Artificial Sequence Synthetic Peptide-linker-hinge polypeptide”) YAEGTFISDYSIAMDKIHQQDFVNWLLAQKGKKNDWKHNITQAAAGGSGSTASSGSGSATGGGGAATHTCPPCPAPELL" limit_sign== reported_value=6.05
molecule="IP146 (protein, /note=“Description of Artificial Sequence Synthetic Peptide-linker-hinge polypeptide”) HGEGTFTSDVSSYLEGQAAKEFIAWLVKGAAAGGSGSTASSGSGSATGGGGAACPPCPAPEF" limit_sign== reported_value=6.19
molecule="IP247: Fc fusion, IgG1-TM, SEQ ID NO:117; agonist peptide YSEGTFTSDYSKLLEKIHQQLFIEWLVKGP (protein, also: Fc fusion, IgG1-TM, agonist peptide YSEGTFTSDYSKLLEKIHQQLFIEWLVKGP) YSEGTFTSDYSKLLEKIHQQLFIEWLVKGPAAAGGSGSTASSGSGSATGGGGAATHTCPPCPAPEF" limit_sign=< reported_value=6.38
molecule="IP188 (protein, /note=“Description of Artificial Sequence Synthetic Peptide-linker-hinge polypeptide”) YSEGTFISDYSIAMDKIHQQDFVNWLLAQKAPPGGGGGSGGGGSGGGGSGGGGSATHTCPPCPAPEF" limit_sign== reported_value=6.46
